FYI, the data here is from ChEMBL document CHEMBL1154779.

- Test system: Rattus norvegicus
- experimentSummary: Effect on heart rate in anesthetized Wistar rat assessed as heart beats per min at 1 mg/kg, iv after 15 mins by electrocardiography
- Type: functional
Binary call on Activity with cut-off 300 bpm: strictly below means class 1, and equality or higher means class 0.

Query :: Dear reviewer, please state whether COc1ccccc1OCCNCC(O)COc1cccc2[nH]ccc12 (racemic) has Activity strictly beneath 300 bpm.
Result :: class 1

Query :: For `COc1ccccc1OCCNC[C@H](O)COc1c(OC)ccc2[nH]ccc12` , is the recorded Activity below the cut-off of 300 bpm?
Result :: class 0

Query :: Activity under 300 bpm? Item: `COc1ccccc1OCCNC[C@@H](O)COc1ccc(OC)c2[nH]ccc12`
Result :: class 1

Query :: Does the reported Activity of `COc1ccccc1OCCNC[C@@H](O)COc1c(OC)ccc2[nH]ccc12` stay below 300 bpm?
Result :: class 0

Query :: Take the molecule COc1ccccc1OCCNCC(O)COc1c(OC)ccc2[nH]ccc12 (racemic) and say whether its Activity is less than 300 bpm.
Result :: class 0

Query :: In the record for `COc1ccccc1OCCNC[C@H](O)COc1ccc(OC)c2[nH]ccc12` , is Activity less than 300 bpm?
Result :: class 1
